target: EBI2 (Homo sapiens, UniProt P32249); assay: Cell-based luminescent assay (EBI2 modulation); conditions: cell-based luminescence; 7a,25-OHC final assay concentration 80 nM; 60 minutes incubation; read-out: IC50
Sequence (P32249 whole entry): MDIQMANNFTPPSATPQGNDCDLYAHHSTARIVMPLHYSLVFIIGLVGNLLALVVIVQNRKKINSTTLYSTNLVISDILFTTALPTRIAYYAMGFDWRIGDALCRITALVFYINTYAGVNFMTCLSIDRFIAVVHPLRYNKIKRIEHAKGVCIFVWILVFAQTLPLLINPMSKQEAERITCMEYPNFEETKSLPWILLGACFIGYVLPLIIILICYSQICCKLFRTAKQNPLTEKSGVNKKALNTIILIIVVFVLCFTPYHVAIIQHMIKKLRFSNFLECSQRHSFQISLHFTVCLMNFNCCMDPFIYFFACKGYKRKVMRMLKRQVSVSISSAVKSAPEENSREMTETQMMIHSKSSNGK
The entries below come with measured IC50 values attached.

Some compounds with known IC50 results, for comparison:
O=C(Nc1ccc(F)cc1F)N1CCN(C(=O)c2cc3cc(Cl)ccc3[nH]2)CC1 ... 100 to 500 nM
CC(C)CN1CCN(C(=O)/C=C/c2ccc(Br)cc2)CC1 ... < 100 nM
Cc1ccccc1/C=C/C(=O)N1CCN(S(=O)(=O)c2ccccc2)CC1 ... 500 to 5000 nM

// output IC50; input O=C(c1cc2ccc(Cl)cc2[nH]1)N1CCN(C(c2ccccc2)c2ccccc2)CC1 ; system EBI2 (Homo sapiens, UniProt P32249)
< 100 nM

For EBI2 (Homo sapiens, UniProt P32249), give IC50 of the listed compound: Nc1ccc2cc(C(=O)N3CCN(C(c4ccccc4)c4ccccc4)CC3)ccc2c1
< 100 nM

Specify IC50 for Cc1nc2ccc(C(=O)N3CCN(C(c4ccccc4)c4ccccc4)CC3)cc2[nH]1 , system EBI2 (Homo sapiens, UniProt P32249).
100 to 500 nM

GET IC50 | system: EBI2 (Homo sapiens, UniProt P32249) | item: O=C(C#Cc1cccc(Cl)c1)N1CCN(Cc2ccc(Cl)cc2)CC1
< 100 nM

Look up EBI2 (Homo sapiens, UniProt P32249) data: IC50 of O=C(/C=C/c1ccc(F)cc1)N1CCN(S(=O)(=O)c2cccs2)CC1 , then report it.
< 100 nM

Quote EBI2 (Homo sapiens, UniProt P32249) IC50 for entry O=C(/C=C/c1ccc(Br)cc1F)N1CCN(S(=O)(=O)c2ccccc2)CC1 .
< 100 nM

Send back EBI2 (Homo sapiens, UniProt P32249) IC50 of O=C(/C=C/c1ccc(Cl)c(Cl)c1)N1CCN(Cc2ccc(Cl)cc2)CC1 only.
< 100 nM

For EBI2 (Homo sapiens, UniProt P32249), give the measured IC50 of the entry Cc1ccc2c(c1)cc(C(=O)N1CCN(C(c3ccccc3)c3ccccc3)CC1)n2C
< 100 nM

# return IC50 for O=C(/C=C/c1ccc(Cl)c(Cl)c1)N1CCN(S(=O)(=O)c2ccccc2)CC1 , test system: EBI2 (Homo sapiens, UniProt P32249)
< 100 nM

----------
Target: EBI2 (Homo sapiens)
Test: Cell-based luminescent assay (EBI2 modulation)
Details: cell-based luminescence; 7a,25-OHC final assay concentration 80 nM; 60 minutes incubation; read-out: IC50
Protocol: Cell-Based Luminescent Assay To assess EBI2 modulation, the compounds described herein were assayed in the following cell-based luminescent assay: 1) Plated 600 cells/well in 4 uL of assay media into columns 1-48 of a 1536-well assay plate, using a liquid dispenser. 2) Centrifuged plates at 1000 rpm for 1 minute and covered with lids. […] 10) Read plates using the Viewlux, Envision or other suitable plate reader using a luminescence detection. […]
Below: a set of entries, each annotated with reported IC50.

Here's what some known entries look like.
O=C(/C=C/c1ccc(F)cc1)N1CCN(S(=O)(=O)Cc2ccccc2)CC1 [Compound C323] ... < 100 nM
O=C(c1cc2ccccc2[nH]1)N1CCN(C(c2ccccc2)c2ccccc2)CC1 [Compound C71] ... < 100 nM
O=C(c1ccc(-c2nnn[nH]2)cc1)N1CCN(C(=O)c2cc3cc(Cl)ccc3[nH]2)CC1 [Compound C204] ... < 100 nM
O=C(CCc1ccc(F)cc1)N1CCN(S(=O)(=O)/C=C/c2ccccc2)CC1 [Compound C406] ... 100 to 500 nM
O=C(/C=C/c1ccccc1)N1CCN(CCOc2ccc(Cl)cc2Cl)CC1 [Compound C407] ... 100 to 500 nM

Indicate the recorded IC50 value for this molecule: COc1ccc(C(=O)N2CCN(C(=O)C#Cc3ccc(C)cc3)CC2)cc1 [Compound C8]
< 100 nM

Report IC50, nothing else, for this molecule: O=C(C=Cc1ccc2c(c1)OCO2)N1CCN(Cc2ccc(F)cc2)CC1 [Compound C463]
100 to 500 nM

Answer with the recorded IC50 for the molecule listed here: O=C(C#Cc1ccc(Cl)cc1)N1CCN(Cc2ccc(C(F)(F)F)cc2)CC1 [Compound C356]
< 100 nM
